Target: BTK C481S protein (Homo sapiens (Human), UniProt Q06187, C481S)
Sequence (Q06187 2-659 C481S): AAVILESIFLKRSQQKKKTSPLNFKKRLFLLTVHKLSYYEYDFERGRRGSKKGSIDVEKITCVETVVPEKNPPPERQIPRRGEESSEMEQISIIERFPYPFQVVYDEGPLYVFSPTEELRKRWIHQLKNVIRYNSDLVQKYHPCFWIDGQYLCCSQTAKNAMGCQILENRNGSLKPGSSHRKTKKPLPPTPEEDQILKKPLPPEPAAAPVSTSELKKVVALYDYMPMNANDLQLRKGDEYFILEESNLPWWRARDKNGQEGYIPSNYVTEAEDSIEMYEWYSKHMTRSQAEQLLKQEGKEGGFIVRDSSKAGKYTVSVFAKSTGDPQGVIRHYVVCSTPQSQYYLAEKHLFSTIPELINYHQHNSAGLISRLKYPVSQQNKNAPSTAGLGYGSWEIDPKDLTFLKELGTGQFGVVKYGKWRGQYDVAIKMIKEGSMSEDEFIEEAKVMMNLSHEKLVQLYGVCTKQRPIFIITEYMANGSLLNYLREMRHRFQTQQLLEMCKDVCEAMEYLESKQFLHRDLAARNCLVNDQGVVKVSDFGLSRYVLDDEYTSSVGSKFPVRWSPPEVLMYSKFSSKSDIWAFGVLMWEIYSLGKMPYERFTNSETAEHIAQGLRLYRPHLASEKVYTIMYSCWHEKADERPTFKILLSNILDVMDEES
Experiment: BTK C481S HTRF displacement assay
Conditions: 1-hour incubation
Procedure: The ability of a compound to bind BTK wildtype or BTK C481S proteins was measured using an HTRF displacement assay. […] Test compounds were prepared as 10 mM stock solutions in DMSO (Fisher cat #BP231-100). […] After a 1-hour incubation at room temperature, the HTRF signal was measured using SPARK plate reader (Tecan) using the TR fluorescence mode. The HTRF ratio is calculated for DMSO, no protein control and compound samples using the following equation: HTRF ratio=Emmision665/Emmision620×10^4. […]
Kindly supply the reported IC50 values for the records listed here.

In [3]: df
Out[3]:
                                   molecule  assay_readout      value
0  CN(C(=O)n1cncn1)C1CCC(n2nc(-c3ccc(Oc4ccccc4)cc3)c3c(N)ncnc32)C1 (stereo not shown)           IC50  ≤ 1000 nM
1  COc1ccc(F)cc1C(=O)NCc1ccc(-c2nn(C3CCCC(N(C)C(=O)n4cncn4)C3)c3ncnc(N)c23)cc1 (stereo not shown)           IC50  ≤ 1000 nM
2  COc1nn(C)cc1Nc1nc(N2CCCC(N(C)C(=O)n3cncn3)C2)nc2c1ncn2C (stereo not shown)           IC50  ≤ 1000 nM
3  COc1ccc(F)cc1C(=O)NCc1ccc(-c2nn(C[C@@H]3C[C@H](O)CN3C(=O)n3cncn3)c3ncnc(N)c23)cc1           IC50  ≤ 1000 nM
4  COc1ccc(C)cc1C(=O)NCc1ccc(-c2nn(C3CCC(N(C)C(=O)n4cncn4)C3)c3ncnc(N)c23)cc1 (stereo not shown)           IC50  ≤ 1000 nM
5  COc1ccc(F)cc1C(=O)NCc1ccc(-c2nn(C[C@H]3CCCCN3C(=O)n3cncn3)c(N)c2C(N)=O)cc1           IC50  ≤ 1000 nM
6  CCN(CC1CCNc2c(C(N)=O)c(-c3ccc(Oc4ccccc4)cc3)nn21)C(=O)n1cncn1 (stereo not shown)           IC50  > 1000 nM
7  CN(CC1CCNc2c(C(N)=O)c(-c3ccc(Oc4ccccc4)cc3)nn21)C(=O)n1cncn1 (stereo not shown)           IC50  > 1000 nM

For each listed entry, give its IC50.
1. COc1ccc(F)cc1C(=O)NCc1ccc(-c2nn(CCC3CCCCN3C(=O)n3cncn3)c3ncnc(N)c23)cc1 (stereo not shown)
2. COc1ccc(F)cc1C(=O)NCc1ccc(-c2nn([C@H]3CC[C@@H](N(C)C(=O)n4cncn4)C3)c3ncnc(N)c23)cc1
3. NC(=O)c1c(-c2ccc(Oc3ccccc3)cc2)nn2c1NCCC2C1CCN1C(=O)n1cncn1 (stereo not shown) [Compound 180]

["≤ 1000 nM", "≤ 1000 nM", "> 1000 nM"]

For each listed entry, give its IC50.
1. CN(C(=O)n1cncn1)C1CCC2C(CNc3c(C(N)=O)c(-c4ccc(Oc5ccccc5)cc4)nn32)C1 (stereo not shown) [Compound 272]
2. NC(=O)c1c(-c2ccc(Oc3ccccc3)cc2)nn2c1NCCC2CN(C(=O)n1cncn1)C1CC1 (stereo not shown)
3. NC(=O)c1c(-c2ccc(Oc3ccccc3)cc2)nn(C[C@@H]2CCCCN2C(=O)n2cncn2)c1N
4. COc1ccc(F)cc1C(=O)NCc1ccc(-c2nn(C(C)CN(C)C(=O)n3cncn3)c3ncnc(N)c23)cc1 (stereo not shown)
5. COc1ccc(F)cc1C(=O)NCc1ccc(-c2nn(C[C@H]3CCCCN3C(=O)n3cncn3)c3ncnc(N)c23)cc1

1. ≤ 1000 nM
2. > 1000 nM
3. ≤ 1000 nM
4. ≤ 1000 nM
5. ≤ 1000 nM

For each listed entry, give its IC50.
1. COc1ccc(F)cc1C(=O)NCc1ccc(-c2nn(C3CCC(CN(C)C(=O)n4cncn4)C3)c3ncnc(N)c23)cc1 (stereo not shown)
2. COc1ccc(F)cc1C(=O)NCc1ccc(-c2nn(C[C@H]3CCCCN3C(=O)n3cncn3)c3[nH]c(=O)[nH]c(=O)c23)cc1
3. COc1ccc(F)cc1C(=O)NCc1ccc(-c2nn(C3(CN(C)C(=O)n4cncn4)CC3)c3ncnc(N)c23)cc1
4. COc1ccc(F)cc1C(=O)NCc1ccc(-c2nn(C(CCN(C)C(=O)n3cncn3)Cc3ccccc3)c3ncnc(N)c23)cc1 (stereo not shown)
5. CN(C(=O)n1cncn1)C1CCCC(n2nc(-c3ccc(Oc4ccccc4)cc3)c3c(N)ncnc32)C1 (stereo not shown)
6. COc1ccc(F)cc1C(=O)NCc1ccc(-c2nn(C[C@@H]3CCCCN3C(=O)n3cncn3)c3[nH]c(=O)[nH]c(=O)c23)cc1
7. COc1ccc(F)cc1C(=O)NCc1ccc(-c2nn(CC3CCCCC3N(C)C(=O)n3cncn3)c(N)c2C(N)=O)cc1 (stereo not shown)

["≤ 1000 nM", "≤ 1000 nM", "> 1000 nM", "> 1000 nM", "≤ 1000 nM", "≤ 1000 nM", "≤ 1000 nM"]

For each listed entry, give its IC50.
1. COc1ccc(F)cc1C(=O)NCc1ccc(-c2nn(C[C@H](C(C)C)N(C)C(=O)n3cncn3)c3ncnc(N)c23)cc1
2. CC1CN(Cc2ccc(C(F)(F)F)cc2N2CCCC2)CCN1C(=O)n1cncn1 (stereo not shown)
3. COc1ccc(F)cc1C(=O)NCc1ccc(-c2nn(CC3CCN3C(=O)n3cncn3)c(N)c2C(N)=O)cc1 (stereo not shown)
4. CN(C(=O)n1cncn1)C1CCCCC(n2nc(-c3ccc(Oc4ccccc4)cc3)c3c(N)ncnc32)C1 (stereo not shown)

1: > 1000 nM; 2: > 1000 nM; 3: ≤ 1000 nM; 4: ≤ 1000 nM

Look up IC50 of COc1ccc(F)cc1C(=O)NCc1ccc(-c2nn(CC3CC(C)CCN3C(=O)n3cncn3)c3ncnc(N)c23)cc1 (stereo not shown) and report it.
> 1000 nM

###

Target: BTK C481S protein (Homo sapiens (Human), UniProt Q06187, C481S)
Experiment: BTK C481S HTRF displacement assay
Details: 1-hour incubation
pIC50: −log10 of the molar value.
assay.readout: pIC50

Field: example entries. Status: answers known.
                                   molecule  assay_readout   value
0  COc1ccc(F)cc1C(=O)NCc1ccc(-c2nn([C@H]3CC[C@H](N(C)C(=O)n4cncn4)C3)c3ncnc(N)c23)cc1          pIC50  ≥ 6.00
1  COc1ccc(F)cc1C(=O)NCc1ccc(-c2nn(CC3CCC3N(C)C(=O)n3cncn3)c3ncnc(N)c23)cc1 (centres unmarked)          pIC50  ≥ 6.00
2  COc1ccc(F)cc1C(=O)NCc1ccc(-c2nn(C[C@@H]3CC[C@H]3N(C)C(=O)n3cncn3)c(N)c2C(N)=O)cc1          pIC50  ≥ 6.00
3  COc1ccc(F)cc1C(=O)NCc1ccc(-c2nn(CC3CC(O)CCN3C(=O)n3cncn3)c3ncnc(N)c23)cc1 (centres unmarked)          pIC50  < 6.00
4  COc1ccc(F)cc1C(=O)NCc1ccc(-c2nn(C[C@@H]3C[C@@H](F)CN3C(=O)n3cncn3)c3ncnc(N)c23)cc1          pIC50  ≥ 6.00

For each listed entry, give its pIC50.
1. COc1ccc(F)cc1C(=O)NCc1ccc(-c2nn(-c3ccc(CN(C)C(=O)n4cncn4)cc3)c3ncnc(N)c23)cc1
2. NC(=O)c1c(-c2ccc(Oc3ccccc3)cc2)nn2c1NCC1CCN(C(=O)n3cncn3)CC12 (centres unmarked)
3. COc1ccc(F)cc1C(=O)NCc1ccc(-c2nn(C(CC3CCC3)CN(C)C(=O)n3cncn3)c3ncnc(N)c23)cc1 (centres unmarked)
4. COc1ccc(F)cc1C(=O)NCc1ccc(-c2nn(C(C)CCN(C)C(=O)n3cncn3)c3ncnc(N)c23)cc1 (centres unmarked)

≥ 6.00
≥ 6.00
< 6.00
≥ 6.00

For each listed entry, give its pIC50.
1. COc1ccc(F)cc1C(=O)NCc1ccc(-c2nn(C[C@H]3CCCN3C(=O)n3cncn3)c3ncnc(N)c23)cc1
2. COc1ccc(F)cc1C(=O)NCc1ccc(-c2nn([C@H]3CCCC[C@@H](N(C)C(=O)n4cncn4)C3)c(N)c2C(N)=O)cc1
3. COc1ccc(F)cc1C(=O)NCc1ccc(-c2nn(C[C@H]3C[C@@H](C)CCN3C(=O)n3cnnc3)c(N)c2C(N)=O)cc1
4. COc1ccc(F)cc1C(=O)NCc1ccc(-c2nn(C[C@@H]3CCCCN3C(=O)n3cncn3)c3ncnc(N)c23)cc1
5. CN(C(=O)n1cncn1)C1CCC2C(CNc3c(C(N)=O)c(-c4ccc(Oc5ccccc5)cc4)nn32)C1 (centres unmarked) [Compound 131]

["≥ 6.00", "≥ 6.00", "≥ 6.00", "≥ 6.00", "< 6.00"]
